target-of-assay: UniProtKB P14416
Sequence (P14416 whole entry): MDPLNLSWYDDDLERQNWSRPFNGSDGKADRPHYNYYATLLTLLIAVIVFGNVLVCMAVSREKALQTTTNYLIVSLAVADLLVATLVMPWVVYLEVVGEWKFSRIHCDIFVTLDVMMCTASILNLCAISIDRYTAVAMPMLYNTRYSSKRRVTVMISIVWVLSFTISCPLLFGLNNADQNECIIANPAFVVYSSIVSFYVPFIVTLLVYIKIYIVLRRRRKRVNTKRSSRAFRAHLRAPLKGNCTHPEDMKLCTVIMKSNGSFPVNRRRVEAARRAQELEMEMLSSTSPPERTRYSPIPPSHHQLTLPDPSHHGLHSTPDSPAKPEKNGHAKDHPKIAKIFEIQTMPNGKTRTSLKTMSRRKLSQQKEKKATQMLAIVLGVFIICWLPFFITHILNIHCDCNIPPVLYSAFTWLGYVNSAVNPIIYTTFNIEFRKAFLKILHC
assay-comment: Displacement of [3H]Spiperone from D2 receptor (unknown origin) transfected in HEK293T cells at 10 uM after 50 mins by liquid scintillation counting analysis
Format: cell-based
assay-context: HEK-293T
measurement-name: inhibition (%)

compound="CCC(C)Cc1cc2c(s1)C[C@H]1c3cc(O)c(OC)cc3CCN1C2 (some centres undefined)" measurement_name=inhibition val=102
compound=COc1cc2c(cc1O)[C@@H]1Cc3sc(CCC(C)C)cc3CN1CC2 measurement_name=inhibition val=90.5
compound=COc1cc2c(cc1O)[C@@H]1Cc3sc(CC4CC4)cc3CN1CC2 measurement_name=inhibition val=99
compound=CCc1cc2c(s1)C[C@H]1c3cc(O)c(OC)cc3CCN1C2 measurement_name=inhibition val=98.5

---

target-of-assay: UniProtKB P08908
Sequence (P08908 whole entry): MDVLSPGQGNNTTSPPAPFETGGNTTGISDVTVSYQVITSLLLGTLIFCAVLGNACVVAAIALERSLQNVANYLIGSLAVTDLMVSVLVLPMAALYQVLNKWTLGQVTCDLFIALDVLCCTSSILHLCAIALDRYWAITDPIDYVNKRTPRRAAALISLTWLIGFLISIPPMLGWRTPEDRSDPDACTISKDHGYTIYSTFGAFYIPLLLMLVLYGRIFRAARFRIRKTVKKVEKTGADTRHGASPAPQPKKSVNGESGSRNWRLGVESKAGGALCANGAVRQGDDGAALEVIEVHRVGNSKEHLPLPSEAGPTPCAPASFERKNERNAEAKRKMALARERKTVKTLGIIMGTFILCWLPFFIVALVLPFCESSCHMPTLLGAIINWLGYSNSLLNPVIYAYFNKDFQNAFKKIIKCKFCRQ
assay-comment: Displacement of [3H]8-OH-DPAT from 5HT1A receptor (unknown origin) transfected in HEK293T cells at 10 uM after 50 mins by liquid scintillation counting analysis
Assay type: cell-based
assay-context: HEK-293T
measurement-name: inhibition (%)

molecule="CCC(C)Cc1cc2c(s1)C[C@H]1c3cc(O)c(OC)cc3CCN1C2 (stereo partly specified)" val=69.4
molecule=COc1cc2c(cc1O)[C@@H]1Cc3sc(CCCCCl)cc3CN1CC2 val=91.9
molecule=COc1cc2c(cc1O)[C@@H]1Cc3sc(CC(C)C)cc3CN1CC2 val=83.7
molecule=COc1cc2c(cc1O)[C@@H]1Cc3sc(CC(C)(C)C)cc3CN1CC2 val=79.8
molecule=COc1cc2c(cc1O)[C@@H]1Cc3sc(CC4CCC4)cc3CN1CC2 val=93.7
molecule=COc1cc2c(cc1O)[C@@H]1Cc3sc(CC4CC4)cc3CN1CC2 val=96.1

---

target-of-assay: D(1A) dopamine receptor (Homo sapiens, UniProt P21728)
Sequence (P21728 whole entry): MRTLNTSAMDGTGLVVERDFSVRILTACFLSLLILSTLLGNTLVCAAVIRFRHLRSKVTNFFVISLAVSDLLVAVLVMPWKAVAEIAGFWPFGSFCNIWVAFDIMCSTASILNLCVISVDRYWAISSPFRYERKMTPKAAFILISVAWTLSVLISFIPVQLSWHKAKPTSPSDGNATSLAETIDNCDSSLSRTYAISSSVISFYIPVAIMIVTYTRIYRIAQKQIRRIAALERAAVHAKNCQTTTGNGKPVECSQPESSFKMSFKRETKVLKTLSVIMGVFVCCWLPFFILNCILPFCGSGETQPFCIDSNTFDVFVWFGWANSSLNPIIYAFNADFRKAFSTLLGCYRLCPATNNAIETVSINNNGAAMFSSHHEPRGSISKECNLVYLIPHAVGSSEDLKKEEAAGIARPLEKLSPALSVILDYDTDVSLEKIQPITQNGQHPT
assay-comment: Displacement of [3H]SCH23390 from D1 receptor (unknown origin) transfected in HEK293T cells at 10 uM after 50 mins by liquid scintillation counting analysis
Type: cell-based
assay-context: HEK-293T
measurement-name: inhibition (%)

compound="COc1cc2c(cc1O)[C@@H]1Cc3sc(CC(C)Cl)cc3CN1CC2 (stereo partly drawn)" val=91.5

I = CCCCc1cc2c(s1)C[C@H]1c3cc(O)c(OC)cc3CCN1C2
II = COc1cc2c(cc1O)[C@@H]1Cc3sc(CCCC(C)C)cc3CN1CC2
Please indicate which has the smaller reported inhibition: I , or II . Pick one; state its label.
II
(II: 68.1%, I: 98.6%)

---

target-of-assay: D(1A) dopamine receptor (Homo sapiens, UniProt P21728)
assay-comment: Displacement of [3H]SCH23390 from D1 receptor (unknown origin) transfected in HEK293T cells after 50 mins by liquid scintillation counting analysis
pKi: −log10 of the molar value.
measurement-name: pKi

cpd_smiles=CCc1cc2c(s1)C[C@H]1c3cc(O)c(OC)cc3CCN1C2 target_of_assay="D(1A) dopamine receptor (Homo sapiens, UniProt P21728)" val=7.58
cpd_smiles=COc1cc2c(cc1O)[C@@H]1Cc3sc(CCCCl)cc3CN1CC2 target_of_assay="D(1A) dopamine receptor (Homo sapiens, UniProt P21728)" val=7.11
cpd_smiles=COc1cc2c(cc1O)[C@@H]1Cc3sccc3CN1CC2 target_of_assay="D(1A) dopamine receptor (Homo sapiens, UniProt P21728)" val=7.06
cpd_smiles=COc1cc2c(cc1O)[C@@H]1Cc3sc(CCCCCl)cc3CN1CC2 target_of_assay="D(1A) dopamine receptor (Homo sapiens, UniProt P21728)" val=6.14
cpd_smiles=CCCCCc1cc2c(s1)C[C@H]1c3cc(O)c(OC)cc3CCN1C2 target_of_assay="D(1A) dopamine receptor (Homo sapiens, UniProt P21728)" val=6.88
cpd_smiles=COc1cc2c(cc1O)[C@@H]1Cc3sc(CC4CCC4)cc3CN1CC2 target_of_assay="D(1A) dopamine receptor (Homo sapiens, UniProt P21728)" val=6.42

a = COc1cc2c(cc1O)[C@@H]1Cc3sc(CC(C)C)cc3CN1CC2
b = COc1cc2c(cc1O)[C@@H]1Cc3sc(CC(C)(C)C)cc3CN1CC2
// pick larger pKi from pair: a vs b Pick one; state its label.
a

Recorded values, source ChEMBL document CHEMBL3351714.
